System: HepG2 cells
Assay: Effect of protease inhibitors on degradation of endocytosed α-DNP antibody in HepG2 cells (50 kDa/25 kDa band ratio)
Details: 12 hours; each concentration in triplicate; ALLN 100 and 10 μM; FIG. 117
VALUE_KIND: inhibition of α-DNP antibody degradation (triplicate)

1) CC(C)C[C@H](NC(=O)[C@H]1O[C@@H]1C(=O)O)C(=O)NCCCCN=C(N)N [Compound E64, E64]	shown to inhibit
2) CC(=O)N[C@@H](CC(C)C)C(=O)N[C@@H](CC(C)C)C(=O)N[C@H](C=O)CCCNC(=N)N [leupeptin, Leupeptin]	shown to inhibit
